The origin of these recorded values is patent US10280179B2.

Test: Cellular toxicity, same assay as Example B.4 without TAM (Example B.5)
Format: cell-based
Conditions: mouse; Pfa1 cells without TAM; read-out: TC50 (the source's name)
Assignment: determine reported CC50 for the given compounds.

Query block: Which CC50 reading was recorded for the compound Fc1ccc(CNC2=Nc3ccccc3NC23CCSCC3)c(F)c1 [O/S-359] ?
Result block: 50 to 100 µM

Query block: Which CC50 value is on record for Clc1cc2c(cc1Cl)NC1(CCCCCC1)C(NCc1ccccc1Cl)=N2 [C-243] ?
Result block: 10 to 20 µM

Query block: Fill blank: measured CC50 of the compound Fc1ccc(CNC2=Nc3ccccc3NC23CCCCC3)c(F)c1 [C-231] is ____.
Result block: 20 to 50 µM

Query block: Find the recorded CC50 belonging to c1ccc(CNC2=Nc3ccccc3NC23CCCCCCC3)cc1 [C-236] and report it.
Result block: 10 to 20 µM

Query block: Value lookup for CC50; key = FC(F)(F)c1ccc2c(c1)N=C(NCc1ccccc1)C1(CCCCC1)N2 [C-259]
Result block: 5 to 10 µM

Query block: Entry c1ccc(CCCNC2=Nc3ccccc3NC23CCSCC3)cc1 [O/S-356] : reported CC50 = ?
Result block: 20 to 50 µM

Query block: Which CC50 is reported for this compound? Clc1cc2c(cc1Cl)NC1(CCCCC1)C(NCc1ccccc1)=N2 [C-217]
Result block: 20 to 50 µM

Query block: What value of CC50 has been recorded for this entry: Cc1cc2c(cc1C)NC1(CCN(C)CC1)C(NCc1ccccc1)=N2 [N-233]
Result block: 10 to 20 µM

Query block: Can you share its CC50? I mean this compound: c1ccc(CCCNC2=Nc3ccccc3NC23CCCCC3)cc1 [C-221]
Result block: 5 to 10 µM

Query block: I am curious: what CC50 value has been reported for Clc1cc2c(cc1Cl)NC1(CCCCCC1)C(NCc1ccccc1)=N2 [C-235] ?
Result block: 10 to 20 µM

* * *

I'd be grateful if you could share measured IC50 for these entries.
Tested on: Pfa1 cells
Experiment: Inhibition of non-apoptotic cell death after tamoxifen-induced GPx4 knockout in a recombinant cell line (Example B.4)
Assay type: cell-based
Conditions: Mus musculus, read-out: Pfa1/TAM IC50

Query block: Returns the measured IC50 for the input compound. Input: Clc1cccc(CNC2=Nc3cc(Cl)c(Cl)cc3NC23CCCCCC3)c1 [C-234]
Result block: < 500 nM

Query block: What value of measured IC50 is listed for Clc1cc2c(cc1Cl)NC1(CCCCC1)C(NCc1ccccc1)=N2 [C-217] ?
Result block: < 50 nM

Query block: For Clc1cc2c(cc1Cl)NC1(CCOCC1)C(NCc1ccccc1)=N2 [O/S-339] , what is its reported IC50?
Result block: < 50 nM

Query block: If you can, please state the reported IC50 value of Cc1cc2c(cc1C)NC1(CCCCC1)C(NCc1ccccc1)=N2 [C-218] .
Result block: < 100 nM

Query block: Any idea what IC50 was measured for Clc1cccc(CNC2=Nc3ccccc3NC23CCCCC3)c1 [C-2] ?
Result block: < 100 nM

Query block: # lookup: IC50 of Clc1cccc(CNC2=Nc3cc(Cl)c(Cl)cc3NC23CCNCC3)c1 [N-115]
Result block: < 10 nM

Query block: Report IC50 for c1ccc(CCCNC2=Nc3ccccc3NC23CCSCC3)cc1 [O/S-356] please.
Result block: < 2000 nM

Query block: Can you look up the measured IC50 of Fc1cc(Cl)ccc1CNC1=Nc2ccccc2NC12CCNCC2 [N-61] for me?
Result block: < 50 nM

Query block: Need IC50, item Clc1ccc(CNC2=Nc3ccccc3NC23CCSCC3)cc1 [O/S-169]
Result block: < 1000 nM

Query block: Query (compound): Cc1cc(C)cc(CNC2=Nc3cc(C)c(C)cc3NC23CCNCC3)c1 [N-262] ; field requested: IC50
Result block: < 50 nM

Query block: Query: IC50; subject: Clc1ccc(CNC2=Nc3ccccc3NC23CCCCC3)c(Cl)c1 [C-230]
Result block: < 100 nM

Query block: What IC50 value was documented for this compound, c1ccc(CCNC2=Nc3ccccc3NC23CCSCC3)cc1 [O/S-368] ?
Result block: < 5000 nM

Query block: Any idea what IC50 was measured for Clc1cccc(CCNC2=Nc3ccccc3NC23CCCCC3)c1 [C-79] ?
Result block: < 500 nM

Query block: Which IC50 value is on record for c1ccc(CNC2=Nc3ccccc3NC23CCNCC3)cc1 [N-206] ?
Result block: < 200 nM

Query block: Entry under review: Clc1cccc(CNC2=Nc3cc4c(cc3NC23CCNCC3)OCCO4)c1 [N-219] . Reported IC50?
Result block: < 1000 nM

Query block: Need IC50 of c1ccc(CCCNC2=Nc3ccccc3NC23CCOCC3)cc1 [O/S-343] , thanks.
Result block: < 2000 nM

Query block: Need IC50, item Clc1ccc(CNC2=Nc3cc(Cl)c(Cl)cc3NC23CCNCC3)cc1 [N-208]
Result block: < 10 nM

Query block: Fill blank: measured IC50 of the compound Cc1cc(C)cc(CNC2=Nc3cc(Cl)c(Cl)cc3NC23CCCCCC3)c1 [C-262] is ____.
Result block: < 500 nM

Query block: // query IC50 value for entry CC(=O)N1CCC2(CC1)Nc1ccccc1N=C2NCc1cccc(Cl)c1 [N-99]
Result block: < 1000 nM

Query block: I'd like to know its IC50. The compound in question is CC(NC1=Nc2ccccc2NC12CCCCC2)c1ccccc1 (centres unmarked) [C-244]
Result block: < 1000 nM

Query block: Data request, read-out IC50, for c1ccc(CNC2=Nc3ccccc3NC23CCCCCCC3)cc1 [C-236]
Result block: < 500 nM

Query block: Which value of IC50 has been reported for Fc1ccc(CNC2=Nc3cc(Cl)c(Cl)cc3NC23CCCCC3)c(F)c1 [C-265] in the records?
Result block: < 500 nM

Query block: For the compound Fc1cccc(F)c1CNC1=Nc2ccccc2NC12CCSCC2 [O/S-351] , what IC50 is on record?
Result block: < 1000 nM

Query block: Name the reported IC50 value associated with the compound Cc1cc2c(cc1C)NC1(CCNCC1)C(NCc1ccccc1)=N2 [N-210]
Result block: < 10 nM

Query block: Query (compound): COc1cccc(CNC2=Nc3ccccc3NC23CCCCCC3)c1 [C-224] ; field requested: IC50
Result block: < 500 nM

Query block: I would be grateful if you could share the reported IC50 for Clc1ccc(CNC2=Nc3ccccc3NC23CCOCC3)c(Cl)c1 [O/S-354] .
Result block: < 500 nM

Query block: What value of measured IC50 is listed for FC1(F)Oc2cc3c(cc2O1)NC1(CCOCC1)C(NCc1ccccc1)=N3 [O/S-366] ?
Result block: < 100 nM

Query block: Which IC50 value is on record for Clc1cccc(CNC2=Nc3ccccc3NC23CCNCC3)c1 [N-2] ?
Result block: < 20 nM

Query block: Need IC50, item c1ccc(CCNC2=Nc3ccccc3NC23CCCCC3)cc1 [C-226]
Result block: < 1000 nM

Query block: Would you kindly share the measured IC50 for Cc1cc(C)cc(CNC2=Nc3ccccc3NC23CCCCC3)c1 [C-225] ?
Result block: < 500 nM

Query block: State the recorded IC50 for this entry: Clc1cc2c(cc1Cl)NC1(CCNCC1)C(NCc1ccccc1)=N2 [N-205]
Result block: < 10 nM

Query block: Param item = Cc1cccc(CNC2=Nc3cc(C)c(C)cc3NC23CCNCC3)c1 [N-235] ; retrieve measured IC50.
Result block: < 50 nM

Query block: Name the reported IC50 value associated with the compound Cc1cc(C)cc(CNC2=Nc3ccccc3NC23CCNCC3)c1 [N-217]
Result block: < 100 nM

Query block: Item Clc1cccc(CNC2=Nc3ccccc3NC23CCOCC3)c1 [O/S-2] has what recorded IC50?
Result block: < 500 nM

Query block: Need IC50 of CN1CCC2(CC1)Nc1ccccc1N=C2NCc1cccc(Cl)c1 [N-90] , thanks.
Result block: < 20 nM

Query block: I have this compound here, c1ccc(CCCCNC2=Nc3ccccc3NC23CCCCC3)cc1 [C-232] , and I need its recorded IC50.
Result block: < 2000 nM

Query block: Please look up its IC50: CN1CCC2(CC1)Nc1cc(F)c(F)cc1N=C2NCc1ccccc1 [N-229]
Result block: < 100 nM

Query block: Please report the recorded IC50 for CC(CCc1ccccc1)NC1=Nc2ccccc2NC12CCCCC2 (centres unmarked) [C-233] .
Result block: < 1000 nM

Query block: What does the data say about its IC50? Entry: Clc1ccc(CNC2=Nc3ccccc3NC23CCOCC3)cc1Cl [O/S-345]
Result block: < 100 nM

Query block: Return reported IC50; argument: Clc1cc2c(cc1Cl)NC1(CCNCC1)C(NCc1ccccc1Cl)=N2 [N-207]
Result block: < 10 nM

Query block: Entry Cc1cc2c(cc1C)NC1(CCOCC1)C(NCc1ccccc1)=N2 [O/S-340] : reported IC50 = ?
Result block: < 500 nM
